The values you see were collected from the supplement of paper PMC10724198.

Exercise: for every item that follows, state its recorded protein stability index.
tested on: Saccharomyces cerevisiae; test: protein stability index of tFT-peptide fusion (C-terminal peptide) (PSI (0-1 scale)); higher = more stable (slower turnover); conditions: genetic background: das1 deletion; temperature: 30 C;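 also: PSI is a weighted mean of sequencing reads over stability bins, variants kept only with over 10 reads, mCherry proximal and sfGFP distal, peptide attached via GGGS linker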
Give the value as a plain number.

Qu. Suppose we examine the sequence LPPFRFSLPFRR ; what protein stability index value has been reported?
Ans. 0.671

Qu. Given LVFPRWACSLVF , state its recorded protein stability index.
Ans. 0.307

Qu. Any idea what protein stability index was measured for FMCFVLPVFVLV ?
Ans. 0.222

Qu. Which protein stability index is reported for this sequence? FVLFCWFFCIVW
Ans. 0.263

Qu. Any idea what its protein stability index is? The sequence is VCALHSAPLLIF
Ans. 0.352

Qu. Sample VGCHISAFSDLI — what was its protein stability index?
Ans. 0.66

Qu. Quick check: protein stability index of VYEVELSVRVTV ?
Ans. 0.435

Qu. Please report the recorded protein stability index for GDSVRVIIFCLN .
Ans. 0.339

Qu. Give its protein stability index value. Item: RGGVRGVRSGRG
Ans. 0.478

Qu. Reported protein stability index, sequence LWRFFFVAFVGI : ____
Ans. 0.377

Qu. What does the data say about its protein stability index? Entry: FSFSAFARFLVI
Ans. 0.604

Qu. Could you tell me which protein stability index is on file for MWFVGLCLHFFM ?
Ans. 0.409

Qu. Name the recorded protein stability index for VPRSLYSVLRLA .
Ans. 0.652

Qu. // protein stability index lookup, key: RVLSLLGCFVVF
Ans. 0.448

Qu. Which protein stability index value belongs to PSRLSFALLFHL ?
Ans. 0.645

Qu. Entry KVGPVLLLCRRS : reported protein stability index = ?
Ans. 0.637

Qu. For FPFVYRSVLLFF , what is its reported protein stability index?
Ans. 0.411

Qu. Can you look up the measured protein stability index of VVFWFPFVLRCC for me?
Ans. 0.193

Qu. I am curious: what protein stability index value has been reported for LSTFFIFLRILR ?
Ans. 0.324
